B1: HEEH_KT_rd6_3632 (parent)
chain: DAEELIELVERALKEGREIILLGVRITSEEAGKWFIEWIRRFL

- Variants of: B1
- assay: folding stability dG (cDNA display proteolysis); higher = more stable
- experimental setup: PBS, room temperature
observed property: folding stability dG (kcal/mol)
Report as a plain number; the unit kcal/mol is understood.

Would you please look over these solved cases?
E4C 4.61
W38S 2.71
E7D 3.7
V24I 3.98
I20E 3.32
D1T 4

Report folding stability dG for A2G please. 3.42

Report folding stability dG for I20V please. 3.66

Report folding stability dG for G23D please. 3.37

Report folding stability dG for L22Y please. 3.22

Report folding stability dG for T27I please. 3.9

Report folding stability dG for I36W please. 3.76

Report folding stability dG for I39M please. 3.58

Report folding stability dG for A2H please. 3.66
